For each of the compounds below, state its XC50.
# Tested on: Plasmodium falciparum
# assay.remarks: GSK_TCMDC: Inhibition of Plasmodium falciparum 3D7 in whole erythrocytes, using parasite LDH activity as an index of growth.
# Type: functional, organism-based
# run.parameters: Plasmodium falciparum, 3D7
Give bare numbers, in µM.

Below, each entry is followed by its recorded XC50 result.
compound | XC50, µM
CN(C)CCN(Cc1ccccc1-c1ccc(CNCCc2ccccc2)cc1)C(=O)c1ccccc1 | 1.7
CN1CCN(CC(=O)Nc2cccc(-c3ccc(-c4nc5cc(C(F)(F)F)ccc5[nH]4)s3)c2)CC1 | 0.309
c1ccc2[nH]c(-c3ccc(-c4ccc(CN5CCN(CCN6CCOCC6)CC5)cc4)s3)nc2c1 | 0.28
COc1ccc(-c2ccc(NC(=O)c3cccc(C#N)c3)cc2)cc1CN1CCCN(C)CC1 | 0.293
C=C(C)COc1ccc(-c2n[nH]c(C(F)(F)F)c2-c2ccccc2OC)c(O)c1 | 0.781

For each of the items listed, what is its XC50?
1. COc1ccc(C(=O)CCC(=O)N(Cc2ccc(-c3ccc(CNCCc4ccccc4)cn3)cc2)C(C)CN(C)C)cc1F (stereo not drawn)
2. COc1cc2c(cc1S(=O)(=O)c1ccc(NC(=O)Nc3ccc(F)cc3)cc1)CCN(C)CC2
3. Cc1nc(-c2cccc(Nc3ccnc4cc(-c5nccs5)ccc34)c2)no1
4. OCC1CCN(Cc2cccc(-c3ccc(-c4nc5cc(C(F)(F)F)ccc5[nH]4)s3)c2)CC1
5. COc1ccc2nc(-c3ccccc3)cc(NCCCNc3cc(-c4ccccc4)nc4ccc(OC)cc34)c2c1
6. O=C(Nc1ccc(-c2ccc(CN3CCNCC3)cc2)cc1)c1cccc(Cl)c1

[0.747, 0.473, 0.322, 0.588, 0.122, 0.894]

For each of the items listed, what is its XC50?
1. COc1cc(F)c2ncc(F)c(CCN3C[C@H](CNCc4ccc5c(n4)NC(=O)CS5)[C@H](O)C3)c2c1
2. O=C(Nc1cccc(CN2CCCN(Cc3cccc(O)c3)CC2)c1)c1ccc(-c2ccccc2)cc1
3. CC(C)NC[C@@H](O)[C@H](Cc1ccccc1)NC(=O)c1cc2c3c(c1)c(C(C)C)cn3CCS(=O)(=O)N2C
4. CC1CCN(Cc2c(O)ccc3c(O)c(-c4nc5ccccc5s4)c(=N)oc23)CC1
5. Cc1nc(-c2cccc(Nc3nccc(NCC(O)c4cccc(F)c4)n3)c2)cs1 (stereo not drawn)

1: 0.462; 2: 0.641; 3: 0.179; 4: 0.162; 5: 0.699

For each of the items listed, what is its XC50?
1. Cc1nc2cc(/C=C/C(=O)NC3CCC(CCN4CCc5ccc(C#N)cc5CC4)CC3)ccc2[nH]1 (stereo not drawn)
2. COc1cccc(N(CCCN2C(=O)c3cccc4cccc(c34)C2=O)C(=O)c2ccccc2C)c1
3. COc1ccc(-c2ccc(NC(=O)c3cccc(Cl)c3)cc2)cc1CN1CCCC1
4. CCOc1ccc2[nH]c(C)cc(=NN=Cc3cccc(F)c3)c2c1
5. CCCN1CCN(c2cc(NCC)c3c4c(onc24)-c2ccccc2C3=O)CC1
6. CCOc1cc2ncnc(Nc3ccc(OCc4ccccc4Br)c(OC)c3)c2cc1OCC
7. O=C(Nc1ccc(CN2CCC(c3c[nH]c4ccc(O)cc34)CC2)cc1)c1ccc(-c2ccccc2)cc1
8. Cc1cc(NC2CCCC2)nc(Nc2ccccc2C)n1

1. 1.14
2. 0.795
3. 0.705
4. 0.736
5. 1.06
6. 0.467
7. 0.253
8. 1.35

For each of the items listed, what is its XC50?
1. O=C(Nc1ccccc1)N(Cc1ccccc1-c1cccc(CNCCc2ccccc2)c1)C1CCN(Cc2ccccc2)CC1
2. COCCCNC(=O)[C@H]1CNCCN1C(=O)c1ccccc1
3. COc1ccc2nc3cc(Cl)ccc3c(NCCc3ccccc3)c2c1
4. COc1ccc(-c2cncc3ccc(C(=O)NCCCn4ccnc4)nc23)cc1

1. 0.176
2. 0.802
3. 0.95
4. 0.748

For each of the items listed, what is its XC50?
1. CN(C)c1ccc(-c2csc(C(=O)NC3CCN(Cc4ccc(C(C)(C)C)cc4)C3)c2)cc1 (stereo not drawn)
2. Cc1ccc(NCC(=O)Nc2ccc(F)c(Cl)c2)cc1S(=O)(=O)N1CCOCC1
3. Cc1cccc2nc(-c3cccc(-c4cccc(CNCCCN5CCCC5=O)c4)c3)[nH]c12
4. Cc1cc(-c2c[nH]c3ncc(-c4cccc5ncccc45)cc23)ccc1C(=O)O
5. CC(=O)Nc1cc(C(=O)Nc2cccc(-c3cccc(-c4nc5cc(C(F)(F)F)ccc5[nH]4)c3)c2)ccc1C

1: 0.947; 2: 0.0576; 3: 0.743; 4: 0.761; 5: 0.215

For each of the items listed, what is its XC50?
1. COc1ccc(NC(=O)c2ccc3[nH]c(-c4ccc(Cl)cc4)cc3c2)cc1OCCN(C)C
2. COc1ccc(C(C(=O)NC2CCN(C[C@H](O)c3ccnc4ccc(OC)cc34)CC2)N2CCc3ccccc3C2)cc1 (stereo partly drawn)

[0.813, 0.697]

For each of the items listed, what is its XC50?
1. CC(Nc1ncc(-c2ccsc2)c(-c2nccs2)n1)c1ccc2c(c1)OCCO2 (stereo not drawn)
2. COc1ccc2[nH]c(C)cc(=NN=Cc3cccc(F)c3)c2c1
3. Cc1c(-c2cccc(CNCCc3ccc(Cl)cc3)c2)cnc(N)c1C

1: 0.175; 2: 0.285; 3: 1.04
